These data points were gathered from patent US10131642B1.

Target: UniProt:A0A2K5UPL9
Sequence (A0A2K5UPL9 1-503): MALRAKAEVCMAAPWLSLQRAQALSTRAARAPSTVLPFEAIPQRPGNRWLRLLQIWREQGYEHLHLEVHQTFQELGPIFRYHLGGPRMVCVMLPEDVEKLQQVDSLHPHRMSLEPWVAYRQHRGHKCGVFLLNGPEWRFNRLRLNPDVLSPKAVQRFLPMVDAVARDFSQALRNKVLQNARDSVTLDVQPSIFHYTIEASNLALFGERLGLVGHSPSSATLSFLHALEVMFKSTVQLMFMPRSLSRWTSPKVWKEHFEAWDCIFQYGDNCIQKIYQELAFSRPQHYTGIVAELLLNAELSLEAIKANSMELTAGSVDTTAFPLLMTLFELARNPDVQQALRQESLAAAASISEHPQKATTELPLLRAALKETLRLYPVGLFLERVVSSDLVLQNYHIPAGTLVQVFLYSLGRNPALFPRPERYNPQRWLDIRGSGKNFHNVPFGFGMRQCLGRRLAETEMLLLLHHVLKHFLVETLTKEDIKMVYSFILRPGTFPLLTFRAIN
pIC50: −log10 of the molar value.
pIC50 listing for selected molecules.

{"molecule": "CC(=O)N1CCC(Cc2onc3c2C(=O)CC(C)(C)C3)CC1 [Cpd 17]", "pIC50": 6.16}
{"molecule": "CC(=O)N1CCC(Cc2onc3c2C(=O)CC(C(C)C)C3)CC1 (single isomer, unassigned) [Cpd 15B]", "pIC50": 6.96}
{"molecule": "CC(C)C1CC(=O)c2c(noc2CC2CCN(C(=O)CO)CC2)C1 (centres unmarked) [Cpd 19]", "pIC50": 6.70}
{"molecule": "CC(C)C1CC(=O)c2c(noc2CC2CCN(C(N)=O)CC2)C1 (centres unmarked) [Cpd 21]", "pIC50": 6.48}
{"molecule": "CC1(C)Cc2noc(Cc3ccc(C#N)cc3)c2C(=O)O1 [Cpd 87]", "pIC50": 6.66}
{"molecule": "C[C@H](O)CNC(=O)c1ccc(Cc2onc3c2C(=O)CC(C)(C)C3)cc1 [Cpd 71]", "pIC50": 6.77}
{"molecule": "CS(=O)(=O)CCCOc1ccc(Cc2onc3c2C(=O)CC(CC2CC2)C3)cc1 (centres unmarked) [Cpd 24]", "pIC50": 7.77}
{"molecule": "CC1(C)CC(=O)c2c(noc2Cc2ccc(OCCC(N)=O)cc2)C1 [Cpd 81]", "pIC50": 7.46}
{"molecule": "COc1ccc(Cc2onc3c2C(=O)CC(C)(C)C3)cn1 [Cpd 10]", "pIC50": 6.96}
{"molecule": "CC(C)C1CC(=O)c2c(noc2CC2CC2)C1 (centres unmarked) [Cpd 6]", "pIC50": 7.57}
{"molecule": "CC1(C)Cc2noc(Cc3ccc(C(N)=O)cc3)c2C(=O)O1 [Cpd 95]", "pIC50": 7.15}
{"molecule": "CC1(C)CC(=O)c2c(noc2Cc2ccc(S(C)(=O)=O)cc2)C1 [Cpd 9]", "pIC50": 7.08}
{"molecule": "N#Cc1ccc(Cc2onc3c2C(=O)CC(C2CCOCC2)C3)cc1 (centres unmarked) [Cpd 12]", "pIC50": 6.74}
{"molecule": "COCC(=O)N1CCC(Cc2onc3c2C(=O)CC(C(C)C)C3)CC1 (centres unmarked) [Cpd 18]", "pIC50": 7.05}
{"molecule": "CS(=O)(=O)CCCOc1ccc(Cc2onc3c2C(=O)CC2(CCC2)C3)cc1 [Cpd 50]", "pIC50": 7.14}
{"molecule": "COCCNC(=O)c1ccc(Cc2onc3c2C(=O)CC(C)(C)C3)cc1 [Cpd 58]", "pIC50": 7.05}
{"molecule": "CN(CCS(C)(=O)=O)C(=O)c1ccc(Cc2onc3c2C(=O)CC(C)(C)C3)cc1 [Cpd 64]", "pIC50": 6.96}
{"molecule": "O=C(O)c1ccc(Cc2onc3c2C(=O)CC(Cc2ccccc2)C3)cc1 (centres unmarked) [Cpd 42]", "pIC50": 6.74}
{"molecule": "CC1(C)CC(=O)c2c(noc2Cc2ccc(OCCS(C)(=O)=O)cc2)C1 [Cpd 29]", "pIC50": 7.14}
{"molecule": "CN(CCO)C(=O)c1ccc(Cc2onc3c2C(=O)CC(C)(C)C3)cc1 [Cpd 59]", "pIC50": 7.04}
